Recorded values, source patent US20220204601A1.

test system: T1, K280-ac protein fragment (human)
T1 construct: also called mAC
T1 peptide: VQIINK(Ac)KLDLSN
test name: ELISA on K280-ac coated at 250 ng/well, HRP anti-human IgG
Ends that are not written are not given here.
Give Absorbance at 450nm at 2ug/well for every item shown.
Give bare numbers.

binder	Absorbance at 450nm at 2ug/well
ADEL-Y01h v08 antibody (antibody, V domains shown, Humanized antibody; It was detected with anti-human IgG; also called Y01h01v08) VH: EVTLKESGPTLVKPTQTLTLTCTVSGDSITSGYWNWIRQPPGKALEYLAYIRYSGRTYYNPSLKSRLTITRDTSKNQVVLTMTNMDPVDTATYYCASVYFTYWGQGTLVTVSS VL: DVVMTQSPDSLAVSLGERATINCKSSQSLLDSDGKTYLNWYQQKPGQSPKRLISLVSKLDSGVPDRFSGSGSGTDFTLTISSLQAEDVAVYYCWQGSHFPYTFGQGTKLEIK	0.294
ADEL-Y01h v10 antibody (antibody, V domains shown, Humanized antibody; It was detected with anti-human IgG; also called Y01h01v10) VH: EVQLVESGGGLVQPGRSLRLSCTVSGDSITSGYWNWFRQAPGKGLEYVGYIRYSGRTYYNPSLKSRFTISRDTSKNIAYLQMNSLKTEDTAVYYCASVYFTYWGQGTLVTVSS VL: DVVMTQSPLSLPVTLGQPASISCKSSQSLLDSDGKTYLNWFQQRPGQSPKRLISLVSKLDSGVPDRFSGSGSGTDFTLKISRVEAEDVGVYYCWQGSHFPYTFGQGTKLEIK	1.87

Here's the next entry for you.
Please look up its Absorbance at 450nm at 2ug/well: v12 (antibody, V domains shown, also called Y01h01v12; ADEL-Y01h v12 antibody) VH: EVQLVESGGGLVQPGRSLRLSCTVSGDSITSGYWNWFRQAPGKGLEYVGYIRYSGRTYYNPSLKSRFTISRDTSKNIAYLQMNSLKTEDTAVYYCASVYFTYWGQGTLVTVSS VL: EVVLTQSPGTLSLSPGERATLSCKSSQSLLDSDGKTYLNWYQQKPGQSPKRLISLVSKLDSGIPDRFSGSGSGTDFTLTISRLEPEDFAVYYCWQGSHFPYTFGQGTKLEIK
1.41
